Experiment: Pharmacokinetics of ERL and GEF in Wistar rats after four weeks consumption of water or flavoured water (plasma, UPLC-MS/MS, non-compartmental analysis)
Assay type: in vivo
Settings: male, Wistar, rat, plasma, oral, 20 mg/kg, PKSolver sheet; dose 20 mg/kg; +Pineapple; read-out: Tmax
Measured Endpoint: Tmax (h)
// return numeric value only (unit: h, not printed)

Tmax recorded for this molecule, `COc1cc2ncnc(Nc3ccc(F)c(Cl)c3)c2cc1OCCCN1CCOCC1` , is 2

----------
Experiment: Pharmacokinetics of ERL and GEF in Wistar rats after four weeks consumption of water or flavoured water (plasma, UPLC-MS/MS, non-compartmental analysis)
Type: in vivo
Conditions: male, Wistar, rat, plasma, po, 20 mg/kg, raw data sheet, from average profile; +Lime FW; read-out: t½ (converted)
In this section we review reported half-life values for a set of molecules.
// return numeric value only (unit: h, not printed)

{"columns": ["Item Smiles", "Measured Endpoint", "Recorded Number"],
 "data": [
  ["C#Cc1cccc(Nc2ncnc3cc(OCCOC)c(OCCOC)cc23)c1", "half-life", 43.6]
]}

Query molecule follows.
half-life recorded for this molecule, `COc1cc2ncnc(Nc3ccc(F)c(Cl)c3)c2cc1OCCCN1CCOCC1` , is 16.9
